Provenance of the data: patent US20220185900A1

A collection of binders and their measured pIC50
# assayed system: T1, hRET.mmh (human, UniProt P07949 29-635, biotinylated in the ELISA of Example 4 (biot-hRET.mmh); not in the SPR of Example 3)
# T1 construct: also called biot-hRET.mmh; soluble monomeric human RET
# procedure summary: competition sandwich ELISA: 1 nM biot-hRET.mmh + antibody, plate-coated GDNF/GFRα1 co-complex
pIC50: −log10 of the molar value.

Some binders with recorded pIC50:
binder	reading
H4H8084P (antibody, human IgG4, V domains shown, human IgG4 Fc (H4H prefix)) VH: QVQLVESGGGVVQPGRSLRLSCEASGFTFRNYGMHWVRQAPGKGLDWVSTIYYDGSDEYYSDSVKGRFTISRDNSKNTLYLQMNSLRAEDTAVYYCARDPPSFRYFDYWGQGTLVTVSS VL: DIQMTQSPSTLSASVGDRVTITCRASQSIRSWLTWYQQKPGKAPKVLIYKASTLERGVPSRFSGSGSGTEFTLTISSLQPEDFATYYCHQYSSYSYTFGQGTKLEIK	> 9.60
H4H7086N (antibody, human IgG4, V domains shown, human IgG4 Fc form of 7086N; also called H4H7086P) VH: QVQLVESGGGVVQPGRSLRLSCVVSGFTFSNYGMHWVRQGPGRGLEWLALIWYDGSDKYYAESVRGRFTISRDNSKNTVYLQMNSLRAEDTAMYYCTRDRIFDYWGQGTLVTVSS VL: AIQMTQSPSSLSASVGDRVTITCRASQDIRNDLGWYQHNPGKAPNLLIYAASTLQIGVPSRFRGSGSGTDFTLTISSLQPEDFATYYCLQDFDYPLSFGGGTKVEIR	9.41

Lab note: next binder to report on.
Q: Which pIC50 is reported for this binder? H4H8062P (antibody, human IgG4, V domains shown, human IgG4 Fc (H4H prefix)) VH: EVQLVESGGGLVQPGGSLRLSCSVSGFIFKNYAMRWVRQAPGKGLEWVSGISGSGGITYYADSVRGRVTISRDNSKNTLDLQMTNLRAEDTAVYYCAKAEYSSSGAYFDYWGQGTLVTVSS VL: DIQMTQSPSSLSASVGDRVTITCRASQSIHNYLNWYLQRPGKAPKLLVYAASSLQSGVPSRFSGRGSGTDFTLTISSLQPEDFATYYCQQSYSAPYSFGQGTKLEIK
A: > 9.60
